meta.source: PubChem BioAssay (NCI)

Tested on: NCI-H522 lung
measurement.description: NCI tumour cell line growth inhibition, 48 h; in the data active = GI50 below about 0.43 µM; inactive = the rest
Your reply should match one of these outcome classes. active, inactive

QUERY: Dear all, I need the recorded test outcome for C=C1C(=O)O[C@H]2[C@H]1CC/C(COC(=O)NCc1c[nH]c3ccc(OC)cc13)=C\CC[C@@]1(C)O[C@@H]21 , thank you.
RESULT: inactive

QUERY: # lookup: test call for O=[N+]([O-])c1ccc(Oc2cccnc2)c([N+](=O)[O-])c1
RESULT: inactive

QUERY: Lab log entry: Clc1ccc(N/N=C/c2ccccn2)nc1 — outcome as called in the assay?
RESULT: active

QUERY: For this compound, state the assay outcome: CCC[CH2][Sn]([CH2]CCC)([O]C(=O)c1cc(OC)c(OC)c(OC)c1)[O]C(=O)c1cc(OC)c(OC)c(OC)c1
RESULT: active

QUERY: Query: recorded result category for N#Cc1cc(-c2ccccc2)[nH]c1-c1nccc2ccccc12 in this test
RESULT: inactive

QUERY: Call for entry O=C1OCC2=C1C(c1ccccc1)c1cc3c(cc1N2CCO)CCC3 (stereo not given) :
RESULT: active

QUERY: Dear colleague, could you share the recorded outcome for COC(=O)c1c2c(c[n+]([O-])c1C)C(=O)C(NCc1ccccc1)=CC2=O when you have a moment?
RESULT: active

QUERY: For Nc1cccc(-c2nc3sccn3c2-c2ccnc(NCCCNS(=O)(=O)c3ccc(C(F)(F)F)cc3)n2)c1 , which call appears in the assay record?
RESULT: inactive

QUERY: Which result was noted for this compound in the test: C=CC[Se]C(=O)c1ccccc1OC(C)=O
RESULT: inactive

QUERY: Test call for this compound, please: CCS(=O)(=O)c1ccc(OC)c(Nc2ncc(-c3cccc(-c4ccccc4F)c3)o2)c1
RESULT: inactive
